// provenance: patent US9693992B2

Target: IRE-1α (Homo sapiens (Human), UniProt O75460)
Sequence (O75460 19-977): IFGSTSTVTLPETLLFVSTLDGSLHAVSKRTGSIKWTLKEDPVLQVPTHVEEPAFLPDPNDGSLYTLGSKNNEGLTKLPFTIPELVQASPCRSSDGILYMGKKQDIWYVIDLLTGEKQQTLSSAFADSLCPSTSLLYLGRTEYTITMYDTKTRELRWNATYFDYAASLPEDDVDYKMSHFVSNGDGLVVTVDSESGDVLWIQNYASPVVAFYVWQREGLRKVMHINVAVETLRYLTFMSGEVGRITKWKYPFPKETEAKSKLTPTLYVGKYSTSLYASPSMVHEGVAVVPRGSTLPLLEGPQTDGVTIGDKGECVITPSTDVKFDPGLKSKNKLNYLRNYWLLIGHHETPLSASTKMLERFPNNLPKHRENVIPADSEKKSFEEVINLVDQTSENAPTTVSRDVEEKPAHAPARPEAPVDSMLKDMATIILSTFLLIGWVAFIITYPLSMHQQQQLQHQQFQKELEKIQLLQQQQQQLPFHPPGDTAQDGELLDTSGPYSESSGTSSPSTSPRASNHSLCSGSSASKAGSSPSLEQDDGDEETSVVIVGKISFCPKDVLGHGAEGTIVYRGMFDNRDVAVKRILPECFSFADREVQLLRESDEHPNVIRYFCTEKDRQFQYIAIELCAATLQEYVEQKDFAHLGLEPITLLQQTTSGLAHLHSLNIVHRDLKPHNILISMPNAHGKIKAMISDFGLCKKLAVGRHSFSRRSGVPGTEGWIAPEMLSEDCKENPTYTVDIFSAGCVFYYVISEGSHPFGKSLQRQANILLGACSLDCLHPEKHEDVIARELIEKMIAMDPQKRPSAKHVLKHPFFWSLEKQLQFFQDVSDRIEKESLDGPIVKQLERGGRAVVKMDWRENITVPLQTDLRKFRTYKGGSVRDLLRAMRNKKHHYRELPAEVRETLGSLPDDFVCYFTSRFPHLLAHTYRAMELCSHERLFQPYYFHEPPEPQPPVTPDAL
Experiment: Cellular EC50: endogenous XBP-1 splicing in myeloma cells (MM.1s, DTT stress, RT-PCR)
Conditions: average cellular EC50, XBP-1 splicing in myeloma cells
pEC50: −log10 of the molar value.
readout-name: pEC50

>  <chem-smiles>
COCCNC(=O)Cc1c(C)c2c(OC)cc(O)c(C=O)c2oc1=O

>  <readout-name>
pEC50

>  <result>
> 5.00

$$$$
>  <chem-smiles>
COc1cc2c(CN3CCOCC3)c(C)c(=O)oc2c(C=O)c1O

>  <readout-name>
pEC50

>  <result>
> 5.00

$$$$
>  <chem-smiles>
Cc1c(CCC(=O)NCCN2CCOCC2)c(=O)oc2c(C=O)c(O)ccc12

>  <readout-name>
pEC50

>  <result>
> 5.00

$$$$
>  <chem-smiles>
CCc1cc2c(C)c(-c3ccc(C(=O)NCCOC)cc3)c(=O)oc2c(C=O)c1O

>  <readout-name>
pEC50

>  <result>
> 5.00

$$$$
>  <chem-smiles>
COCCNC(=O)CCc1nc2c(C=O)c(O)ccc2o1

>  <readout-name>
pEC50

>  <result>
< 5.00

$$$$
>  <chem-smiles>
CCc1cc2c(C)c(-c3ccc(C(=O)N4CCOCC4)cc3)c(=O)oc2c(C=O)c1O

>  <readout-name>
pEC50

>  <result>
< 5.00

$$$$
>  <chem-smiles>
O=Cc1c(O)ccc2oc(C(=O)NCCN3CCOCC3)cc12

>  <readout-name>
pEC50

>  <result>
> 5.00

$$$$
>  <chem-smiles>
COc1cc2c(C)c(CC(=O)NCCN(C)C)c(=O)oc2c(C=O)c1O

>  <readout-name>
pEC50

>  <result>
> 5.00

$$$$
>  <chem-smiles>
CCNC(=O)CCc1cc2c(C=O)c(O)ccc2s1

>  <readout-name>
pEC50

>  <result>
< 5.00

$$$$
>  <chem-smiles>
COCCNC(=O)CCc1c(C)c2c(OC)cc(O)c(C=O)c2oc1=O

>  <readout-name>
pEC50

>  <result>
> 5.00

$$$$
>  <chem-smiles>
CCOC(=O)CCc1nc2c(C=O)c(O)ccc2n1C

>  <readout-name>
pEC50

>  <result>
> 5.00

$$$$
>  <chem-smiles>
Cc1c(C)c2cc(OCCN3CCOCC3)c(O)c(C=O)c2oc1=O

>  <readout-name>
pEC50

>  <result>
> 5.00

$$$$
>  <chem-smiles>
COc1cc2c(=O)c(CC(=O)NCCN(C)C)c(C)oc2c(C=O)c1O

>  <readout-name>
pEC50

>  <result>
< 5.00

$$$$
>  <chem-smiles>
CCNC(=O)CCc1nc2c(C=O)c(O)ccc2o1

>  <readout-name>
pEC50

>  <result>
< 5.00

$$$$
>  <chem-smiles>
COc1cc2c(C)c(-c3ccc(N4CCOCC4)nc3)c(=O)oc2c(C=O)c1O

>  <readout-name>
pEC50

>  <result>
> 5.00

$$$$
>  <chem-smiles>
COCCOc1cc(O)c(C=O)c2oc(=O)c(CC(=O)NCCN(C)C)c(C)c12

>  <readout-name>
pEC50

>  <result>
< 5.00

$$$$
>  <chem-smiles>
O=Cc1c(O)ccc2sc(C(=O)N3CCOCC3)cc12

>  <readout-name>
pEC50

>  <result>
< 5.00

$$$$
>  <chem-smiles>
CCOC(=O)Cc1c(C)c2cc(OC)c(O)c(C=O)c2oc1=O

>  <readout-name>
pEC50

>  <result>
> 5.00

$$$$
>  <chem-smiles>
COc1cc2c(C)c(CC(=O)NCCO)c(=O)oc2c(C=O)c1O

>  <readout-name>
pEC50

>  <result>
< 5.00

$$$$

====

Target: IRE-1α (Homo sapiens (Human), UniProt O75460)
Assay: Cellular EC50: endogenous XBP-1 splicing in myeloma cells (MM.1s, DTT stress, RT-PCR)
Assay type: cell-based
Details: average cellular EC50, XBP-1 splicing in myeloma cells
pEC50: −log10 of the molar value.
Readings of pEC50 for the listed compounds

>  <chem-smiles>
COc1cc2c(C)c(-c3ccc(C(=O)NCCN4CCOCC4)s3)c(=O)oc2c(C=O)c1O

>  <system>
IRE-1α (Homo sapiens (Human), UniProt O75460)

>  <pEC50>
> 5.00

$$$$
>  <chem-smiles>
COC(=O)Cc1cc2c(C=O)c(O)ccc2s1

>  <system>
IRE-1α (Homo sapiens (Human), UniProt O75460)

>  <pEC50>
< 5.00

$$$$
>  <chem-smiles>
COc1cc(O)c(C=O)c2oc(=O)c(C)c(CN(C)C)c12

>  <system>
IRE-1α (Homo sapiens (Human), UniProt O75460)

>  <pEC50>
> 5.00

$$$$
>  <chem-smiles>
COCCOc1cc(O)c(C=O)c2oc(=O)c(CC(=O)N3CCN(C)CC3)c(C)c12

>  <system>
IRE-1α (Homo sapiens (Human), UniProt O75460)

>  <pEC50>
> 5.00

$$$$
>  <chem-smiles>
COCCNC(=O)CCc1nc2ccc(O)c(C=O)c2n1C

>  <system>
IRE-1α (Homo sapiens (Human), UniProt O75460)

>  <pEC50>
< 5.00

$$$$
>  <chem-smiles>
COc1cc(O)c(C=O)c2oc(=O)c(CCC(=O)N3CCN(C)CC3)c(C)c12

>  <system>
IRE-1α (Homo sapiens (Human), UniProt O75460)

>  <pEC50>
> 5.00

$$$$
>  <chem-smiles>
COc1cc2c(C)c(-c3ccc(N(C)C)nc3)c(=O)oc2c(C=O)c1O

>  <system>
IRE-1α (Homo sapiens (Human), UniProt O75460)

>  <pEC50>
> 5.00

$$$$
>  <chem-smiles>
O=Cc1c(O)ccc2sc(C(=O)NCCN3CCOCC3)cc12

>  <system>
IRE-1α (Homo sapiens (Human), UniProt O75460)

>  <pEC50>
> 5.00

$$$$
>  <chem-smiles>
COc1cc(O)c(C=O)c2oc(=O)c(CCC(=O)NCCN3CCOCC3)c(C)c12

>  <system>
IRE-1α (Homo sapiens (Human), UniProt O75460)

>  <pEC50>
> 5.00

$$$$
>  <chem-smiles>
O=Cc1c(O)ccc2ocnc12

>  <system>
IRE-1α (Homo sapiens (Human), UniProt O75460)

>  <pEC50>
< 5.00

$$$$
>  <chem-smiles>
O=Cc1c(O)ccc2oc(C(=O)O)cc12

>  <system>
IRE-1α (Homo sapiens (Human), UniProt O75460)

>  <pEC50>
< 5.00

$$$$
>  <chem-smiles>
Cc1c(CC(=O)N2CCOCC2)c(=O)oc2c(C=O)c(O)ccc12

>  <system>
IRE-1α (Homo sapiens (Human), UniProt O75460)

>  <pEC50>
> 5.00

$$$$
>  <chem-smiles>
COc1cc2c(C(C)C)cc(=O)oc2c(C=O)c1O

>  <system>
IRE-1α (Homo sapiens (Human), UniProt O75460)

>  <pEC50>
> 5.00

$$$$
>  <chem-smiles>
COCCNC(=O)CCc1c(C)c2cc(OCCN3CCOCC3)c(O)c(C=O)c2oc1=O

>  <system>
IRE-1α (Homo sapiens (Human), UniProt O75460)

>  <pEC50>
< 5.00

$$$$
>  <chem-smiles>
CCNC(=O)CCc1c(C)c2cc(OCCOC)c(O)c(C=O)c2oc1=O

>  <system>
IRE-1α (Homo sapiens (Human), UniProt O75460)

>  <pEC50>
> 5.00

$$$$
>  <chem-smiles>
Cn1c(CCC(=O)NCCN2CCOCC2)nc2ccc(O)c(C=O)c21

>  <system>
IRE-1α (Homo sapiens (Human), UniProt O75460)

>  <pEC50>
< 5.00

$$$$
>  <chem-smiles>
O=Cc1c(O)ccc2oc(C(=O)N3CCOCC3)cc12

>  <system>
IRE-1α (Homo sapiens (Human), UniProt O75460)

>  <pEC50>
< 5.00

$$$$
>  <chem-smiles>
COCCOc1cc(O)c(C=O)c2oc(=O)c(CC(=O)NCCN3CCOCC3)c(C)c12

>  <system>
IRE-1α (Homo sapiens (Human), UniProt O75460)

>  <pEC50>
> 5.00

$$$$
>  <chem-smiles>
COc1cc2c(=O)c(CC(=O)NCCN3CCOCC3)c(C)oc2c(C=O)c1O

>  <system>
IRE-1α (Homo sapiens (Human), UniProt O75460)

>  <pEC50>
< 5.00

$$$$

====

Readings of pEC50 for the listed molecules
Molecular target: IRE-1α (Homo sapiens (Human))
Experiment: Cellular EC50: endogenous XBP-1 splicing in myeloma cells (MM.1s, DTT stress, RT-PCR)
Conditions: average cellular EC50, XBP-1 splicing in myeloma cells
pEC50: −log10 of the molar value.
readout-name: pEC50

>  <chem-smiles>
COCCNC(=O)c1ccc(-c2c(C)c3cc(Cl)c(O)c(C=O)c3oc2=O)cc1

>  <system>
IRE-1α (Homo sapiens (Human))

>  <result>
< 5.00

$$$$
>  <chem-smiles>
Cc1oc2c(C=O)c(O)ccc2c(=O)c1CC(=O)N1CCOCC1

>  <system>
IRE-1α (Homo sapiens (Human))

>  <result>
< 5.00

$$$$
>  <chem-smiles>
CCNC(=O)Cc1c(C)c2cc(OCCOC)c(O)c(C=O)c2oc1=O

>  <system>
IRE-1α (Homo sapiens (Human))

>  <result>
> 5.00

$$$$
>  <chem-smiles>
COCCOc1cc(O)c(C=O)c2oc(=O)c(CCC(=O)N3CCOCC3)c(C)c12

>  <system>
IRE-1α (Homo sapiens (Human))

>  <result>
> 5.00

$$$$
>  <chem-smiles>
CCOC(=O)CCc1cc2c(C=O)c(O)ccc2s1

>  <system>
IRE-1α (Homo sapiens (Human))

>  <result>
< 5.00

$$$$
>  <chem-smiles>
CN1CCN(C(=O)c2cc3c(C=O)c(O)ccc3[nH]2)CC1

>  <system>
IRE-1α (Homo sapiens (Human))

>  <result>
< 5.00

$$$$
>  <chem-smiles>
COCCOc1cc(O)c(C=O)c2oc(=O)c(CCC(=O)NCCN3CCOCC3)c(C)c12

>  <system>
IRE-1α (Homo sapiens (Human))

>  <result>
< 5.00

$$$$
>  <chem-smiles>
COc1cc(O)c(C=O)c2oc(=O)c(CC(=O)NCCN3CCOCC3)c(C)c12

>  <system>
IRE-1α (Homo sapiens (Human))

>  <result>
> 5.00

$$$$
>  <chem-smiles>
CCNC(=O)Cc1c(C)oc2c(C=O)c(O)c(OC)cc2c1=O

>  <system>
IRE-1α (Homo sapiens (Human))

>  <result>
> 5.00

$$$$
